test system: Mycobacterium tuberculosis; assay: Antitubercular activity against dormant Mycobacterium bovis BCG after at 10 ug 12 days by nitrate reductase assay; format: functional, variant bovis BCG
Definition: the class of an entry is the range in bottom end: < 30%; midrange: ≥ 30% and < 50%; top end: ≥ 50% that contains its inhibition (INH).

Record excerpt, results attached:
COc1ccc(C2SCC(=O)N2NC(=O)c2cnc(C)cn2)cc1 (stereo not drawn); top end
COc1ccc([C@H]2SCC(=O)N2NC(=O)c2nccnc2N)cc1OC; bottom end
Nc1nccnc1C(=O)NN1C(=O)CSC1c1ccc(F)cc1 (stereo not drawn); bottom end

Problem: Determine which band this molecule sits in: Cc1cnc(C(=O)NN2C(=O)CS[C@@H]2c2ccc([N+](=O)[O-])cc2)cn1
Solution: top end

Problem: Class? Entry: Nc1nccnc1C(=O)NN1C(=O)CSC1c1cccc([N+](=O)[O-])c1 (stereo not drawn)
Solution: midrange

Problem: Which bin, given its inhibition (INH), does COc1ccc(C2SCC(=O)N2NC(=O)c2cnc(C)cn2)cc1OC (stereo not drawn) occupy?
Solution: bottom end

Problem: // bin(item) where item = Cc1cnc(C(=O)NN2C(=O)CSC2c2ccc(Cl)cc2)cn1 (stereo not drawn)
Solution: midrange

Problem: Exercise: read the entry CN(C)c1ccc(C2SCC(=O)N2NC(=O)c2nccnc2N)cc1 (stereo not drawn) and state which class it falls under.
Solution: midrange

Problem: For the record Cc1cnc(C(=O)NN2C(=O)CSC2c2ccc(O)cc2)cn1 (stereo not drawn) , report the class its inhibition (INH) corresponds to.
Solution: bottom end

* * *

test system: Mycobacterium tuberculosis; assay: Antitubercular activity against dormant Mycobacterium bovis BCG after 12 days by nitrate reductase assay; format: functional, organism-based; settings: variant bovis BCG, 288 h
readout: IC50 (µg/mL)
Quick reminder: number only, in µg/mL, skip the unit.

Cc1cnc(C(=O)NN2C(=O)CS[C@H]2c2ccc(N(C)C)cc2)cn1; 21.8
COc1ccc([C@H]2SCC(=O)N2NC(=O)c2nccnc2N)cc1OC; 23.4

Pending compound:
Problem: Answer with the recorded IC50 of Nc1nccnc1C(=O)NN1C(=O)CSC1c1ccccc1 (stereo not drawn) only.
Solution: 12.9

* * *

system: Mycobacterium tuberculosis; assay: Antitubercular activity against dormant Mycobacterium bovis BCG after at 3 ug 12 days by nitrate reductase assay; format: functional, variant bovis BCG
readout: inhibition (INH)
Quick note: unit goes after the number.

Before answering, review these 2 worked examples.
Cc1cnc(C(=O)NN2C(=O)CS[C@H]2c2ccc(N(C)C)cc2)cn1; 30.06%
O=C(NN1C(=O)CSC1c1ccc(O)cc1)c1cnccn1 (stereo not drawn); 9.989%

Problem: Supply reported inhibition (INH) belonging to this molecule: CCOc1cc([C@H]2SCC(=O)N2NC(=O)c2nccnc2N)ccc1O
Solution: 30.79%

* * *

tested on: Mycobacterium tuberculosis; assay: Antitubercular activity against dormant Mycobacterium bovis BCG after at 10 ug 12 days by nitrate reductase assay; type: functional, variant bovis BCG
Tag: True if measured inhibition (INH) is not below 30%, False if it is.

Cc1cnc(C(=O)NN2C(=O)CS[C@H]2c2ccc(N(C)C)cc2)cn1; True
Cc1cnc(C(=O)NN2C(=O)CS[C@@H]2c2cccc([N+](=O)[O-])c2)cn1; True
Cc1cnc(C(=O)NN2C(=O)CSC2c2ccccc2)cn1 (centres undefined); False
O=C(NN1C(=O)CSC1c1ccc(O)cc1)c1cnccn1 (centres undefined); False

Problem: Please indicate if the recorded inhibition (INH) for Nc1nccnc1C(=O)NN1C(=O)CSC1c1ccc(Cl)cc1Cl (centres undefined) meets or exceeds 30%.
Solution: False

Problem: Quick check, inhibition (INH) >= 30%? Nc1nccnc1C(=O)NN1C(=O)CSC1c1ccc(Cl)cc1 (centres undefined)
Solution: True

Problem: Determine whether measured inhibition (INH) meets or exceeds 30% for O=C(NN1C(=O)CS[C@@H]1c1ccc(Cl)cc1)c1cnccn1
Solution: True

Problem: Determine whether measured inhibition (INH) meets or exceeds 30% for CCOc1cc([C@@H]2SCC(=O)N2NC(=O)c2cnc(C)cn2)ccc1O
Solution: True

Problem: Is inhibition (INH) at least 30%? Consider Nc1nccnc1C(=O)NN1C(=O)CSC1c1ccc(O)cc1 (centres undefined)
Solution: True

Problem: Threshold query (inhibition (INH) >= 30%) on COc1cc([C@@H]2SCC(=O)N2NC(=O)c2cnc(C)cn2)ccc1O
Solution: True

Problem: Record O=C(NN1C(=O)CS[C@@H]1c1ccc([N+](=O)[O-])cc1)c1cnccn1 ; criterion: inhibition (INH) no lower than 30%. Met?
Solution: True

Problem: Is the recorded value of inhibition (INH) equal to or greater than 30% for this compound? CCOc1cc([C@H]2SCC(=O)N2NC(=O)c2nccnc2N)ccc1O
Solution: False

Problem: Hi team, for Nc1nccnc1C(=O)NN1C(=O)CS[C@H]1c1ccc([N+](=O)[O-])cc1 , is the recorded inhibition (INH) at or above 30%?
Solution: True
